Where do these numbers come from? They come from patent US10919841B2.

target: serotonin transporter (Rattus norvegicus, UniProt P31652); test: 5-HT releasing/substrate activity using rat brain synaptosomes
Sequence (P31652 whole entry): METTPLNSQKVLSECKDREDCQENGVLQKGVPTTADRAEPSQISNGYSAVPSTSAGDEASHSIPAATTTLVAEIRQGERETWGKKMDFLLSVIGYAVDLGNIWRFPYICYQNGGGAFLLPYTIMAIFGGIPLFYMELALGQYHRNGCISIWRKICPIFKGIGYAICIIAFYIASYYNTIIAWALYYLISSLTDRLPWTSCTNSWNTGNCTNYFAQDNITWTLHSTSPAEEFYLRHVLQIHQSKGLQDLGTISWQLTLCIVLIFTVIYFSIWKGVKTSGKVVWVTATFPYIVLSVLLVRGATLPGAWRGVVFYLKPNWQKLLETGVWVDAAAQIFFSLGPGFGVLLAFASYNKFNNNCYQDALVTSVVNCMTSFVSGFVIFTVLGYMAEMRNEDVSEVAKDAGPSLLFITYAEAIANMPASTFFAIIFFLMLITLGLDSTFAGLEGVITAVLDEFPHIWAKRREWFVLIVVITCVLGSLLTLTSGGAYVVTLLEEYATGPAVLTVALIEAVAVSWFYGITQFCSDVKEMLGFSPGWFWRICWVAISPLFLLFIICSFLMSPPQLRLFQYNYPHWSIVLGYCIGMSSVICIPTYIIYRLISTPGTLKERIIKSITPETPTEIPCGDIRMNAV
Measured EC50 by item
QUANTITY: EC50 (nM)

1. Cc1cccc(C(=O)C(C)NC2CC2)c1 (centres unmarked): 890
2. Cc1ccc(C(=O)C(C)NC2CC2)cc1Cl (centres unmarked): 139
3. COc1cccc(C(=O)C(C)NC2CC2)c1 (centres unmarked): 676
4. Cc1ccc(C(=O)C(C)NC2CC2)cc1 (centres unmarked): 707
5. CC(NC1CC1)C(=O)c1cccc(Br)c1 (centres unmarked): 383
6. CC(NC1CC1)C(=O)c1ccc(Cl)c(Cl)c1 (centres unmarked): 148
7. CC(NC1CC1)C(=O)c1ccc(Cl)cc1 (centres unmarked): 2700
8. CC(NC1CC1)C(=O)c1cccc(Cl)c1 (centres unmarked): 283

---

test system: rats; experiment: cocaine discrimination (2-lever operant), i.p. administration; settings: Rattus norvegicus, ip, read-out: % cocaine lever responding
QUANTITY: responders at 10 mg/kg

1) CCN(CC)C(C)C(=O)c1cccc(Cl)c1 (stereo not drawn): 66%
2) CCCC(NC(C)(C)C)C(=O)c1cccc(Cl)c1 (stereo not drawn): 33%
3) CC(C(=O)c1cccc(Cl)c1)N(C)C (stereo not drawn): 83%

---

biological target: (h)DAT (Homo sapiens); construct: expressed in transfected cells; experiment: block of [3H]dopamine reuptake in HEK-(h)DAT cells; assay type: cell-based; conditions: bound given in μM; read-out: Uptake, IC50 [3H]DA
QUANTITY: IC50

1) CC(C)(C)NC(CCC1CCCCC1)C(=O)c1cccc(Cl)c1 (stereo not shown) [Compound 2u]: > 10 µM

---

target: (h)SERT (Homo sapiens, UniProt P31645); construct: expressed in transfected cells; host or cells: HEK293; assay: block of [3H]serotonin reuptake in HEK-(h)SERT cells; format: cell-based; settings: mean ± standard error of three independent experiments; read-out: Uptake, IC50 [3H]5-HT
Sequence (P31645 whole entry): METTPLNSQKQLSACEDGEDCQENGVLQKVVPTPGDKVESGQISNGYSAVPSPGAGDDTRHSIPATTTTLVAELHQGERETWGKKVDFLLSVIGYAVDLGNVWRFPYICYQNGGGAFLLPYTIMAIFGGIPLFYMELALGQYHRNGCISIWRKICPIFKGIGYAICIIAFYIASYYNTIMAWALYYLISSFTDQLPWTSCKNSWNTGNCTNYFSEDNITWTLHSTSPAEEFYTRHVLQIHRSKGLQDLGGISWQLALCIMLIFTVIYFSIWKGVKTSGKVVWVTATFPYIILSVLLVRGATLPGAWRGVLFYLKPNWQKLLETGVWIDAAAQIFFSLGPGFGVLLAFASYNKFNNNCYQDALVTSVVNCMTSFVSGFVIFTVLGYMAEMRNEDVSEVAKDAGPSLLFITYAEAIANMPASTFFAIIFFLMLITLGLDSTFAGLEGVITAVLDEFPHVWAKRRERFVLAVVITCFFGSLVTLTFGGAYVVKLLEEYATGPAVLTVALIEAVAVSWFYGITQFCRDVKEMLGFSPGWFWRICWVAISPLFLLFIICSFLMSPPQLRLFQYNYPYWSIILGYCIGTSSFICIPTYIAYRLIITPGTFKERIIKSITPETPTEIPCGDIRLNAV
QUANTITY: IC50 (nM)

1. CCC(NC(C)(C)C)C(=O)c1ccc(Cl)c(Cl)c1 (stereo not shown) [Compound 2aa]: 790

---

# IC50 listing for each entry below
target: (h)DAT (Homo sapiens, UniProt Q01959); construct: expressed in transfected cells; experiment: block of [3H]dopamine reuptake in HEK-(h)DAT cells; assay type: cell-based; conditions: mean ± standard error of three independent experiments; read-out: Uptake, IC50 [3H]DA
Sequence (Q01959 whole entry): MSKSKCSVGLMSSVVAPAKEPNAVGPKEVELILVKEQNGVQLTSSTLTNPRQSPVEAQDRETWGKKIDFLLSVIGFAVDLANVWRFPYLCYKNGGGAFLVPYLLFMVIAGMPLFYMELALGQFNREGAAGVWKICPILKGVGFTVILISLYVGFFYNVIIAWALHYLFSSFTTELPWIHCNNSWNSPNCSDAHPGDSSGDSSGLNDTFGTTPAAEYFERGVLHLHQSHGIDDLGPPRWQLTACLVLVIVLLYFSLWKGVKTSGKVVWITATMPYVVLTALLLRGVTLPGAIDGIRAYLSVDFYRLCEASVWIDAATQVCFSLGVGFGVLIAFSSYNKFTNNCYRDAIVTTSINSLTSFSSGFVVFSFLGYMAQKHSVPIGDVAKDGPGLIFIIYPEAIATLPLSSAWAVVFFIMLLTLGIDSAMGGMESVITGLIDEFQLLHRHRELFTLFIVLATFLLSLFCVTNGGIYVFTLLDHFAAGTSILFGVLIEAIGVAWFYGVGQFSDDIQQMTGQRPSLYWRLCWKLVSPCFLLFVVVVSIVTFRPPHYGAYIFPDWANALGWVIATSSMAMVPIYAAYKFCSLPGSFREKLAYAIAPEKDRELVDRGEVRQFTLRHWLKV
QUANTITY: IC50 (nM)

1. CCCC(NC(C)(C)C)C(=O)c1cccc(Cl)c1 (centres unmarked) [Compound 2p]: 33
2. CCN(CC)C(C)C(=O)c1cccc(Cl)c1 (centres unmarked) [Compound 2ee]: 1740
3. CC(NC(C)(C)C)C(=O)c1cccc(F)c1 (centres unmarked) [Compound 2c]: 1460
4. CCCCCC(NC(C)(C)C)C(=O)c1cccc(Cl)c1 (centres unmarked) [Compound 2r]: 1570
5. CCC(NC(C)(C)C)C(=O)c1ccc(Cl)c(Cl)c1 (centres unmarked) [Compound 2aa]: 175

---

Below: a set of entries, each annotated with reported responders at 25 mg/kg.
tested on: rats; assay: cocaine discrimination (2-lever operant), i.p. administration; conditions: Rattus norvegicus, ip, read-out: % cocaine lever responding
QUANTITY: responders at 25 mg/kg (%)

1) CC(NC(C)(C)C)C(=O)c1cc(F)cc(F)c1 (centres unmarked) [Compound 2m]: 50
2) CCC(NC(C)(C)C)C(=O)c1ccc(Cl)c(Cl)c1 (centres unmarked) [Compound 2aa]: 10
3) CC(NC1CC1)C(=O)c1cccc(Cl)c1 (centres unmarked) [Compound 2x]: 34
4) CC(NC(C)(C)C)C(=O)c1ccc(F)c(F)c1 (centres unmarked) [Compound 2i]: 17
5) CCN(CC)C(C)C(=O)c1cccc(Cl)c1 (centres unmarked) [Compound 2ee]: 82
6) CC(NC(C)(C)C)C(=O)c1ccc(Cl)c(Cl)c1 (centres unmarked) [Compound 2j]: 17
7) Cc1ccc(C(=O)C(C)NC(C)(C)C)cc1 (centres unmarked) [Compound 2h]: 17
8) CC(C(=O)c1cccc(Cl)c1)N(C)C (centres unmarked) [Compound 2dd]: 83
9) Cc1cc(C(=O)C(C)NC(C)(C)C)ccc1Br (centres unmarked) [Compound 2l]: 0
10) CC(NC(C)(C)C)C(=O)c1cccc(F)c1 (centres unmarked) [Compound 2c]: 50
11) CCCCCC(NC(C)(C)C)C(=O)c1cccc(Cl)c1 (centres unmarked) [Compound 2r]: 34
12) CC(NC(C)(C)C)C(=O)c1cccc(Br)c1 (centres unmarked) [Compound 2d]: 83
13) CC(C(=O)c1cccc(Cl)c1)N(C)C(C)(C)C (centres unmarked) [Compound 2cc]: 50
14) CC(NC(C)(C)C)C(=O)c1cccc(Cl)c1 (racemic) [Compound 2a, reference compound]: 66

---

Reported values of pKi for individual entries
target: (h)SERT (Homo sapiens, UniProt P31645); construct: expressed in transfected cells; host or cells: HEK293; details: mean ± standard error of three independent experiments; read-out: Binding, Ki SERT
pKi: −log10 of the molar value.
QUANTITY: pKi

1. CC(C)CC(NC(C)(C)C)C(=O)c1cccc(Cl)c1 (centres unmarked): 5.21
2. Cc1ccc(C(=O)C(C)NC(C)(C)C)cc1Cl (centres unmarked): 5.68
3. CC(NC1CCC1)C(=O)c1cccc(Cl)c1 (centres unmarked): 5.46
4. CCC(NC(C)(C)C)C(=O)c1ccc(Cl)c(Cl)c1 (centres unmarked): 6.07
5. CC(C)(C)NC(CCC1CCCCC1)C(=O)c1cccc(Cl)c1 (centres unmarked): 5.21

---

Parameter responders at 10 mg/kg: see the listing below.
test system: rats; assay: cocaine discrimination (2-lever operant), i.p. administration; conditions: Rattus norvegicus, ip, read-out: % cocaine lever responding
QUANTITY: responders at 10 mg/kg (%)

1) CCCCC(NC(C)(C)C)C(=O)c1cccc(Cl)c1 (centres unmarked): 67
2) CC(C(=O)c1cccc(Cl)c1)N(C)C(C)(C)C (centres unmarked): 49
3) CC(NC(C)(C)C)C(=O)c1cccc(Br)c1 (centres unmarked): 27
4) CC(NC1CC1)C(=O)c1cccc(Cl)c1 (centres unmarked): 67
5) CC(NC1CCCC1)C(=O)c1cccc(Cl)c1 (centres unmarked): 0
6) CC(NC(C)(C)C)C(=O)c1ccccc1 (centres unmarked): 83
7) CCCC(NC(C)(C)C)C(=O)c1ccc(Cl)c(Cl)c1 (centres unmarked): 17
8) CC(NC(C)(C)C)C(=O)c1cccc(F)c1 (centres unmarked): 0
9) CC(C(=O)c1cccc(Cl)c1)N1CCCCC1 (centres unmarked): 6
10) CC(NC(C)(C)C)C(=O)c1ccc(Cl)cc1 (centres unmarked): 33
11) CC(NC(C)(C)C)C(=O)c1cccc(Cl)c1 (racemic) [Compound 2a, reference compound]: 67
12) CCC(NC(C)(C)C)C(=O)c1ccc(Cl)c(Cl)c1 (centres unmarked): 10
13) CC(NC(C)(C)C)C(=O)c1ccc(F)c(F)c1 (centres unmarked): 2
14) CC(NC(C)(C)C)C(=O)c1ccc(Cl)c(Cl)c1 (centres unmarked): 0
15) CCCCCCC(NC(C)(C)C)C(=O)c1cccc(Cl)c1 (centres unmarked): 0
16) CC(NC(C)(C)C)C(=O)c1cc(F)cc(F)c1 (centres unmarked): 17
17) CCCCCC(NC(C)(C)C)C(=O)c1cccc(Cl)c1 (centres unmarked): 0
18) Cc1ccc(C(=O)C(C)NC(C)(C)C)cc1 (centres unmarked): 0
19) CC(NC(C)(C)C)C(=O)c1ccc(Br)cc1 (centres unmarked): 1
20) Cc1cc(C(=O)C(C)NC(C)(C)C)ccc1Br (centres unmarked): 0

---

tested on: rats; assay: cocaine discrimination (2-lever operant), i.p. administration; details: Rattus norvegicus, ip, read-out: % cocaine lever responding
QUANTITY: responders at 25 mg/kg (%)

1) CC(NC1CCCC1)C(=O)c1cccc(Cl)c1 (stereo not drawn): 66
2) CCCC(NC(C)(C)C)C(=O)c1ccc(Cl)c(Cl)c1 (stereo not drawn): 10
3) CCCCCCC(NC(C)(C)C)C(=O)c1cccc(Cl)c1 (stereo not drawn): 49
4) CC(NC(C)(C)C)C(=O)c1ccccc1 (stereo not drawn): 83
5) CC(C(=O)c1cccc(Cl)c1)N1CCCCC1 (stereo not drawn): 17
6) CCCCC(NC(C)(C)C)C(=O)c1cccc(Cl)c1 (stereo not drawn): 10
7) CC(NC(C)(C)C)C(=O)c1ccc(Br)cc1 (stereo not drawn): 17
8) CC(NC(C)(C)C)C(=O)c1ccc(Cl)cc1 (stereo not drawn): 17
9) CCCC(NC(C)(C)C)C(=O)c1cccc(Cl)c1 (stereo not drawn): 83

---

Here the recorded responders at 50 mg/kg is given for each entry.
tested on: rats; experiment: cocaine discrimination (2-lever operant), i.p. administration; conditions: Rattus norvegicus, ip, read-out: % cocaine lever responding
QUANTITY: responders at 50 mg/kg (%)

1) Cc1cc(C(=O)C(C)NC(C)(C)C)ccc1Br (centres unmarked) [Compound 2l]: 17
2) CC(NC(C)(C)C)C(=O)c1ccc(Br)cc1 (centres unmarked) [Compound 2g]: 17
3) CCCCCC(NC(C)(C)C)C(=O)c1cccc(Cl)c1 (centres unmarked) [Compound 2r]: 17
4) CC(NC(C)(C)C)C(=O)c1cccc(F)c1 (centres unmarked) [Compound 2c]: 10
5) CC(NC(C)(C)C)C(=O)c1cc(F)cc(F)c1 (centres unmarked) [Compound 2m]: 83
6) Cc1ccc(C(=O)C(C)NC(C)(C)C)cc1 (centres unmarked) [Compound 2h]: 67
7) CC(NC(C)(C)C)C(=O)c1ccc(Cl)cc1 (centres unmarked) [Compound 2f]: 0
8) CCCCCCC(NC(C)(C)C)C(=O)c1cccc(Cl)c1 (centres unmarked) [Compound 2s]: 50
9) CC(NC1CC1)C(=O)c1cccc(Cl)c1 (centres unmarked) [Compound 2x]: 17
10) CC(NC(C)(C)C)C(=O)c1ccc(Cl)c(Cl)c1 (centres unmarked) [Compound 2j]: 34
11) CC(C(=O)c1cccc(Cl)c1)N(C)C (centres unmarked) [Compound 2dd]: 10
12) CC(NC1CCCC1)C(=O)c1cccc(Cl)c1 (centres unmarked) [Compound 2z]: 83
13) CC(NC(C)(C)C)C(=O)c1ccc(F)c(F)c1 (centres unmarked) [Compound 2i]: 47
14) CC(C(=O)c1cccc(Cl)c1)N1CCCCC1 (centres unmarked) [Compound 2ff, 2-Piperidino-3′-chloropropiophenone]: 33
